Test system: Candida glabrata NCYC 388
Assay: Antifungal susceptibility by microbroth dilution (CLSI)
Type: cell-based
Conditions: Table 1; 48 h, >90% inhibition of growth
Give measured MIC for each item. Keep answers brief.
Quote the value and follow it with the unit of measurement.

[in] So what does the record say about MIC for CCCCC(O)(Cc1cn(-c2ccc(Cl)cc2O)nn1)c1ccccc1 (centres unmarked) ?
[out] 64 µg/mL

[in] So what does the record say about MIC for CCC(O)(c1ccccc1)c1cn(-c2ccc(Cl)cc2O)nn1 (centres unmarked) [Compound 1db] ?
[out] 8 µg/mL

[in] So what does the record say about MIC for CCC(O)(c1ccccc1)c1cn(-c2ccc(Cl)cc2O)nn1 (centres unmarked) [Compound 2db] ?
[out] 64 µg/mL

[in] So what does the record say about MIC for CCC(O)(c1ccccc1)c1cn(-c2cc(Cl)ccc2O)nn1 (centres unmarked) [Compound 1da] ?
[out] 8 µg/mL

[in] So what does the record say about MIC for CCC(O)(c1ccccc1)c1cn(-c2cc(Cl)ccc2O)nn1 (centres unmarked) [Compound 2da] ?
[out] 128 µg/mL
